Values were extracted from ChEMBL document CHEMBL3425488.

MEASUREMENT TARGET: Histone deacetylase 4 (Homo sapiens, UniProt P56524)
Sequence (P56524 whole entry): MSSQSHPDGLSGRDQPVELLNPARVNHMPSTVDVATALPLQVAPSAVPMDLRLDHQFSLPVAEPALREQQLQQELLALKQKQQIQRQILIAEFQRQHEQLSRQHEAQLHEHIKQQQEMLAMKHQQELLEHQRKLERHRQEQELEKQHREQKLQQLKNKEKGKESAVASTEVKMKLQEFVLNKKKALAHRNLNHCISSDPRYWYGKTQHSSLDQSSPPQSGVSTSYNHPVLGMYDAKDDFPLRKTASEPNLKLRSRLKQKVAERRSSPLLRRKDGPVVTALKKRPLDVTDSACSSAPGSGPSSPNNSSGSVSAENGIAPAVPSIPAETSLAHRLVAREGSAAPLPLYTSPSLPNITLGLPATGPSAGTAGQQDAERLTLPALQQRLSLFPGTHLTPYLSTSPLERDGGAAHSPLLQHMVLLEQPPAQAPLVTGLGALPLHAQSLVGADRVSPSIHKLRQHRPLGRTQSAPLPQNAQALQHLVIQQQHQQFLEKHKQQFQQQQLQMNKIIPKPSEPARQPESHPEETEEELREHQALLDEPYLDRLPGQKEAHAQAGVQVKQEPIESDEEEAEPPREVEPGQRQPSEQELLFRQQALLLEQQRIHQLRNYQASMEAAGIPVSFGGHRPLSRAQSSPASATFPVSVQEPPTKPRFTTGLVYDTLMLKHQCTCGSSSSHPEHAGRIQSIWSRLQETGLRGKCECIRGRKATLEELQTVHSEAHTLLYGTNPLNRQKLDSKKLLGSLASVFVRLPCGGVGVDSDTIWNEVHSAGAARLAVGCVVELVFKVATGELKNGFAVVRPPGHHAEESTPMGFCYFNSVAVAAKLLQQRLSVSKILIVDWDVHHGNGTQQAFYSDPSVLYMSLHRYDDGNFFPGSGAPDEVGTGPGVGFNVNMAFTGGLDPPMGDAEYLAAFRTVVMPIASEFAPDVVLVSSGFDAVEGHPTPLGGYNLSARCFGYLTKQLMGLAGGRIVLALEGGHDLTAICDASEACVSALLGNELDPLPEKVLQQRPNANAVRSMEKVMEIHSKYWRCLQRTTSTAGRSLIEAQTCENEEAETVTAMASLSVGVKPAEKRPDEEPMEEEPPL
EXPERIMENT NOTES: Inhibition of recombinant HDAC4 (unknown origin) by homogeneous fluorescence release assay
READOUT NAME: pIC50
Keep in mind that pIC50 stands for -log10 of concentration in molar terms.

Ask: Given the entry O=C(/C=C/c1ccc(NC(=O)C(Cc2ccccc2)c2ccccc2)cn1)NO (configuration not stated) , report its measured pIC50.
Reply: 4.93

###

MEASUREMENT TARGET: Histone deacetylase 2 (Homo sapiens)
Sequence (Q92769 whole entry): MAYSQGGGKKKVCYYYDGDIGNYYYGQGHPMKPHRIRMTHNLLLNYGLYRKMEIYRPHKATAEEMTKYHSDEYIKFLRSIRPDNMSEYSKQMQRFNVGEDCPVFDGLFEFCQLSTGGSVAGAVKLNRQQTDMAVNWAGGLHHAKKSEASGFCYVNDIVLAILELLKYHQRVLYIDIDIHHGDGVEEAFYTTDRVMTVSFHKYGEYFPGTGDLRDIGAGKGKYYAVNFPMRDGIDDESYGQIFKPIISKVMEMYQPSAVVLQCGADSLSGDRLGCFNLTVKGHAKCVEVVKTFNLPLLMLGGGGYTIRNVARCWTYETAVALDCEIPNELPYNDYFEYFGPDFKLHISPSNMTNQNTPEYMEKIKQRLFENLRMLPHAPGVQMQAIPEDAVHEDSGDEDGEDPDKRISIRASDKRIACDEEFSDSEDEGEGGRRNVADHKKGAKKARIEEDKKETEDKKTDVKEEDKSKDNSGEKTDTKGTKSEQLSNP
EXPERIMENT NOTES: Inhibition of recombinant HDAC2 (unknown origin) by homogeneous fluorescence release assay
READOUT NAME: IC50 (nM)
# value in nM; strip the unit string

Ask: Given the entry O=C(/C=C/c1ccc(NC(=O)C(Cc2ccccc2)c2ccccc2)cn1)NO (stereo unspecified) , report its measured IC50.
Reply: 1770

###

MEASUREMENT TARGET: Histone deacetylase 5 (Homo sapiens, UniProt Q9UQL6)
Sequence (Q9UQL6 whole entry): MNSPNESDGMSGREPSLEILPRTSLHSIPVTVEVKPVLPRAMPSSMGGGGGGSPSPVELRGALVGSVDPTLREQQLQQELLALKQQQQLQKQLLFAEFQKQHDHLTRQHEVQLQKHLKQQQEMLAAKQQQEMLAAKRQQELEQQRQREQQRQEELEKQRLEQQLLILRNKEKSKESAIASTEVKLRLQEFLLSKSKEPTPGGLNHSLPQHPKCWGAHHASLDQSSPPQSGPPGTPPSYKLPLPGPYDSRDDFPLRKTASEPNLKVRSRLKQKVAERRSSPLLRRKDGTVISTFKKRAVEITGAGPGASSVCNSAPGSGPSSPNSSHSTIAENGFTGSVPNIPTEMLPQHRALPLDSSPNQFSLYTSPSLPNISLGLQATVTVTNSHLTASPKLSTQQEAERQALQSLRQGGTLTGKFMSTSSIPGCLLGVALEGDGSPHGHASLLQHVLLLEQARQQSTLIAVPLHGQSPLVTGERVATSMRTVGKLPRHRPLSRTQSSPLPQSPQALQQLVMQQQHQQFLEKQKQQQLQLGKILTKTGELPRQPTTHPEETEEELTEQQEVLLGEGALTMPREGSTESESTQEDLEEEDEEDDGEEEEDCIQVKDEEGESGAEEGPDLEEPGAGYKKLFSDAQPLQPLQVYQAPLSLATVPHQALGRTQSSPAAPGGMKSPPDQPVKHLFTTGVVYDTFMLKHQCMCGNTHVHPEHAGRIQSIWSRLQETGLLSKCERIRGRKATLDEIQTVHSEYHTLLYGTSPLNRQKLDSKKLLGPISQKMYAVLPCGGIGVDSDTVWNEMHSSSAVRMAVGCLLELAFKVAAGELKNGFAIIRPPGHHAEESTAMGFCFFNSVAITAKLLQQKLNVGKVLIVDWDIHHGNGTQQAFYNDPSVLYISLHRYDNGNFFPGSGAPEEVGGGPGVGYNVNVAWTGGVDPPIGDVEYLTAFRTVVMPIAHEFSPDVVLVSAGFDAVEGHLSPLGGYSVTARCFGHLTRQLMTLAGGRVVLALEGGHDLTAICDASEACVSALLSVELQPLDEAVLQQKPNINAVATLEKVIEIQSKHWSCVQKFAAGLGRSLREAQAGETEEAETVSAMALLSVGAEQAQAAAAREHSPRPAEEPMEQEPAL
EXPERIMENT NOTES: Inhibition of recombinant HDAC5 (unknown origin) by homogeneous fluorescence release assay
READOUT NAME: pIC50
Keep in mind that pIC50 stands for -log10 of concentration in molar terms.

Ask: Given the entry O=C(/C=C/c1ccc(NC(=O)C(Cc2ccccc2)c2ccccc2)cn1)NO (configuration not stated) , report its measured pIC50.
Reply: 5.03

###

MEASUREMENT TARGET: Histone deacetylase 9 (Homo sapiens, UniProt Q9UKV0)
EXPERIMENT NOTES: Inhibition of recombinant HDAC9 (unknown origin) by homogeneous fluorescence release assay
READOUT NAME: IC50 (µM)
# value in µM; strip the unit string

Ask: API: value(readout= IC50, system= Histone deacetylase 9 (Homo sapiens, UniProt Q9UKV0), query= O=C(/C=C/c1ccc(NC(=O)C(Cc2ccccc2)c2ccccc2)cn1)NO (configuration not stated) )
Reply: 10.6

###

MEASUREMENT TARGET: UniProt:Q8WUI4
EXPERIMENT NOTES: Inhibition of recombinant HDAC7 (unknown origin) by homogeneous fluorescence release assay
READOUT NAME: pIC50
Keep in mind that pIC50 stands for -log10 of concentration in molar terms.

Ask: Given the entry O=C(/C=C/c1ccc(NC(=O)C(Cc2ccccc2)c2ccccc2)cn1)NO (configuration not stated) , report its measured pIC50.
Reply: 5.06

###

MEASUREMENT TARGET: Protein deacetylase HDAC6 (Homo sapiens)
Sequence (Q9UBN7 whole entry): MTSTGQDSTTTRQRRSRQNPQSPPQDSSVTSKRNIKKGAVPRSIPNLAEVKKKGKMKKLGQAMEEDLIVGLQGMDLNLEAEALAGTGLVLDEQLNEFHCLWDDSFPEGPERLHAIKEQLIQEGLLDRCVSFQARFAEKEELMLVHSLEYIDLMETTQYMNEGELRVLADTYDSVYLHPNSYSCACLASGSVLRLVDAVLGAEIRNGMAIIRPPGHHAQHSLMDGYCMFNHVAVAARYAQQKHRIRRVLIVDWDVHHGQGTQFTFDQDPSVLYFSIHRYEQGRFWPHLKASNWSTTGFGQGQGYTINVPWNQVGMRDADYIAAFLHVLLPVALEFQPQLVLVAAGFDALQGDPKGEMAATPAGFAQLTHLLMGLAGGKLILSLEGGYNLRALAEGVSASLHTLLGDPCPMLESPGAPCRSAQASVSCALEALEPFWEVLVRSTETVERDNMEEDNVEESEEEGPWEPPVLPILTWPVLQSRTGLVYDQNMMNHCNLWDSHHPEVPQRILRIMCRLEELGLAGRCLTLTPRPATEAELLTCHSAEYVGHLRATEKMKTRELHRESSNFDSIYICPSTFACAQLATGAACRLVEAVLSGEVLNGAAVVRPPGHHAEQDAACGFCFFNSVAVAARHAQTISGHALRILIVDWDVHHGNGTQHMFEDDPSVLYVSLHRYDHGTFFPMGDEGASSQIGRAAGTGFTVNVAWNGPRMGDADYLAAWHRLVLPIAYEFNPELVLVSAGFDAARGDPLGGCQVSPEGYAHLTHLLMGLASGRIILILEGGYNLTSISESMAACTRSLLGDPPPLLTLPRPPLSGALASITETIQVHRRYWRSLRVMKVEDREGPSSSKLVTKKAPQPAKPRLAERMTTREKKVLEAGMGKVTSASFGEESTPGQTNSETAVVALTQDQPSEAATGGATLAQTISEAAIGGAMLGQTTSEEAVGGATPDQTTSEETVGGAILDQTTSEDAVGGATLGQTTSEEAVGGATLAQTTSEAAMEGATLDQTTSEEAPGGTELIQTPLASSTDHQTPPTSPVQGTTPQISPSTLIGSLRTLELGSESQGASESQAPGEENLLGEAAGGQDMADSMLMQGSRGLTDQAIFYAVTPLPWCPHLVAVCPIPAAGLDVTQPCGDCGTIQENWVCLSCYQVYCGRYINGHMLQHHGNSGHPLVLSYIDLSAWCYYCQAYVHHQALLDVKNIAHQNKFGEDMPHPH
EXPERIMENT NOTES: Inhibition of recombinant HDAC6 (unknown origin) by homogeneous fluorescence release assay
READOUT NAME: pIC50
Keep in mind that pIC50 stands for -log10 of concentration in molar terms.

Ask: Given the entry O=C(/C=C/c1ccc(NC(=O)C(Cc2ccccc2)c2ccccc2)cn1)NO (stereo unspecified) , report its measured pIC50.
Reply: 8.00

###

MEASUREMENT TARGET: Histone deacetylase 3 (Homo sapiens, UniProt O15379)
Sequence (O15379 whole entry): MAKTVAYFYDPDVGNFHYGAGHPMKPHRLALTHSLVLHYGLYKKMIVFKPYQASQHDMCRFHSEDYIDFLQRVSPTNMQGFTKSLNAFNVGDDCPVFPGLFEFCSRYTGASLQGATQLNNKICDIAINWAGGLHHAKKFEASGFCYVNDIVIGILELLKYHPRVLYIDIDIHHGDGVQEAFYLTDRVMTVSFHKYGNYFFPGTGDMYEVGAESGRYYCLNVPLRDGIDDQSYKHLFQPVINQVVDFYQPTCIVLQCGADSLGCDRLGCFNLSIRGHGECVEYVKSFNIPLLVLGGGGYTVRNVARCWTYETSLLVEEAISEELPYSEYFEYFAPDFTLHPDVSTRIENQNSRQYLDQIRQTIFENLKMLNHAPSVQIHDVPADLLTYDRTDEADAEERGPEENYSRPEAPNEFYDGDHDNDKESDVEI
EXPERIMENT NOTES: Inhibition of recombinant HDAC3 (unknown origin) by homogeneous fluorescence release assay
READOUT NAME: pIC50
Keep in mind that pIC50 stands for -log10 of concentration in molar terms.

Ask: API: value(readout= pIC50, system= Histone deacetylase 3 (Homo sapiens, UniProt O15379), query= O=C(/C=C/c1ccc(NC(=O)C(Cc2ccccc2)c2ccccc2)cn1)NO (stereo unspecified) )
Reply: 7.10
